Listed compounds paired with reported pKi
- assay.target: CPP32 (Homo sapiens, UniProt P42574)
- Sequence (P42574 29-175 limits assumed): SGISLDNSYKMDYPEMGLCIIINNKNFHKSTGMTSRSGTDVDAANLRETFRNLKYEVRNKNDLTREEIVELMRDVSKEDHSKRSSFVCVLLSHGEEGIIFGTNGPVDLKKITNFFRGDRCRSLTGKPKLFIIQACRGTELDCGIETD
- Sequence (P42574 176-277 limits assumed): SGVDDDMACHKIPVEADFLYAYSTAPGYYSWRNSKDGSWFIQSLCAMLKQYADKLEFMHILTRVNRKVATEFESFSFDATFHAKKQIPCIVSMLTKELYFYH
- experiment.summary: Dissociation constant Ki and irreversible rate constant k3 for irreversible inhibitors, CPP32
- experimental.conditions: continuous assay 60 min, reaction initiated by adding enzyme
Where a SMILES comes first, the peptide text is derived from it. The star is where a group is joined. Cbz = O=C(OCc1ccccc1)*; CH2F = FC*
Please express pKi as -log10 of the molar concentration.

Sample records with pKi:
compound | endpoint.value
CCCCCCP(=O)(OCC(=O)[C@H](CC(=O)O)NC(=O)[C@@H](NC(=O)COc1cccc2ccccc12)C(C)C)c1ccc(F)cc1 (stereo partly shown) | 6.87
CC(C)[C@H](NC(=O)COc1cccc2ccccc12)C(=O)N[C@@H](CC(=O)O)C(=O)COc1ccc(F)cc1 | 7.48
CC(C)[C@H](NC(=O)COc1cccc2ccccc12)C(=O)N[C@@H](CC(=O)O)C(=O)COc1c(F)c(F)c(F)c(F)c1F | 7.00
Cc1nnc(SCC(=O)[C@H](CC(=O)O)NC(=O)[C@@H](NC(=O)COc2cccc3ccccc23)C(C)C)s1 | 6.60
O=C(O)CC(NC(=O)[C@@H]1Cc2ccccc2N1C(=O)COc1cccc2ccccc12)C(=O)CF (stereo partly shown) | 6.44
CC(C)C[C@H](NC(=O)COc1c(C(=O)O)ccc2ccccc12)C(=O)N[C@@H](CC(=O)O)C(=O)COP(=O)(c1ccccc1)c1ccccc1 | 7.55
CC(C)[C@H](NC(=O)CCOc1cccc2ccccc12)C(=O)N[C@@H](CC(=O)O)C(=O)COC(=O)c1c(Cl)cccc1Cl | 6.96
CC(C)[C@H](NC(=O)COc1cccc2ccccc12)C(=O)N[C@@H](CC(=O)O)C(=O)COc1cccc(F)c1F | 6.96
CC(C)C[C@H](NC(=O)COc1ccccc1-c1ccccc1)C(=O)N[C@@H](CC(=O)O)C(=O)COC(=O)c1c(Cl)cccc1Cl | 7.36
O=C(O)CC(NC(=O)[C@@H]1Cc2ccccc2CN1C(=O)COc1cccc2ccccc12)C(=O)CF (mixture of isomers) | 6.12

*Q* So what's the measured pKi for this one? CC(NC(=O)C(NC(=O)OCc1ccccc1)C(C)C)C(=O)NC(CC(=O)O)C(=O)CF (stereo not drawn) [refer., Cbz-ValAlaAsp-CH2F, reference compound] (Cbz-Val-Ala-Asp-CH2F; configuration not given here)
*A* 6.09

*Q* Given the compound CC(C)[C@H](NC(=O)COc1cccc2ccccc12)C(=O)N[C@@H](CC(=O)O)C(=O)COn1nnc2ccccc2c1=O , what is its reported pKi?
*A* 7.28

---

- assay.target: CPP32 (Homo sapiens)
- Sequence (P42574 29-175 limits assumed): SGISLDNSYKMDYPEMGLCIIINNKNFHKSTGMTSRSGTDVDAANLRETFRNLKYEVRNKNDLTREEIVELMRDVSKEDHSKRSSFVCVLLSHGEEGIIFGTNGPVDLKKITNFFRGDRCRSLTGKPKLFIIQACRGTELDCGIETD
- Sequence (P42574 176-277 limits assumed): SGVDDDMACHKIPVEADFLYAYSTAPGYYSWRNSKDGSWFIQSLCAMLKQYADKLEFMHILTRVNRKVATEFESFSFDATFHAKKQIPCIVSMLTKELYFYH
- experiment.summary: Fluorescence enzyme assay, IC50 determination, CPP32
- Type: biochemical
- experimental.conditions: Table 3; method of Preparation 3A; read-out: CPP32 I50
attribute.measured: IC50 (nM)
The response must be a number in nM with no trailing unit.

smiles.representation | IC50 / nM
CC(C)C[C@H](NC(=O)CCc1cccc2ccccc12)C(=O)N[C@H](C=O)CC(=O)O | 1590
CC(C)C[C@H](NC(=O)COc1ccccc1)C(=O)N[C@H](C=O)CC(=O)O | 3400

Please examine the following record next.
*Q* Record request: IC50 value, item CC(C)C[C@H](NC(=O)COc1ccc2c(c1)CCCC2)C(=O)N[C@H](C=O)CC(=O)O
*A* 162
